Provenance of the data: patent US8501749B2

- Target desc: Chymase (Homo sapiens (Human), UniProt P23946)
- Sequence (P23946 22-247): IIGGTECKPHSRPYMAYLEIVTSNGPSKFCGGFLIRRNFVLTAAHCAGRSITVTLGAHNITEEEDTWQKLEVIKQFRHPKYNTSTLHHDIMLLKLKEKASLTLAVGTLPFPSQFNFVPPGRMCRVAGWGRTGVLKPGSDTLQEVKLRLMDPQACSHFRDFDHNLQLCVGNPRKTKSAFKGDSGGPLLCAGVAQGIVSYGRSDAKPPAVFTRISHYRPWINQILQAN
Quantity: IC50 (nM)
Please respond with the number in nM and leave the unit unwritten.

Consider the molecule shown here: `CC[C@H](CC(=O)O)n1c(=O)c2ncccc2n(Cc2cn(C)c3cc(C)cc(C)c23)c1=O` What is its recorded IC50?
0.4
